Below, each entry is listed alongside its reported Drug excretion.
experiment: Drug excretion in female Sprague-Dawley rat feces treated with [14C]-AMG 221 at 2 mg/kg, po measured over 24 hrs by LC-MS/HPLC radiometric analysis; type: ADME, organism-based; parameters: dose 2 mg/kg, route oral; details: in vivo
Reply with just the number (in %).

Recorded Drug excretion, per entry:
1) C[C@H](CO)[C@]1(C)SC(N[C@H]2C[C@H]3C[C@@H]2C[C@@H]3O)=NC1=O; 24
2) CC(C)[C@]1(C)SC(N[C@H]2C[C@H]3C[C@@H]2[C@H](O)[C@@H]3O)=NC1=O; 24
3) C[C@H](CO)[C@]1(C)SC(N[C@H]2C[C@H]3C[C@@H]2[C@H](O)C3)=NC1=O; 24

// returns reported Drug excretion for input CC(C)[C@]1(C)SC(N[C@H]2C[C@H]3C[C@@H]2C[C@@H]3O)=NC1=O
24

Same question, CC(C)[C@]1(C)SC(N[C@H]2C[C@H]3C[C@@H]2C[C@@H]3OS(=O)(=O)O)=NC1=O this time
6

Also need C[C@H](CO)[C@]1(C)SC(N[C@H]2C[C@@H]3CC[C@H]2C3)=NC1=O , thanks.
37

Can you check C[C@@H](CO)[C@]1(C)SC(N[C@H]2C[C@H]3C[C@@H]2C[C@@H]3O)=NC1=O next?
24

Can you check C[C@H](CO)[C@]1(C)SC(N[C@H]2C[C@H]3C[C@@H]2C[C@H]3O)=NC1=O next?
24
